# EXPERIMENTAL_TARGET: human SSTR3 (Homo sapiens (Human), UniProt P32745)
# Sequence (P32745 whole entry): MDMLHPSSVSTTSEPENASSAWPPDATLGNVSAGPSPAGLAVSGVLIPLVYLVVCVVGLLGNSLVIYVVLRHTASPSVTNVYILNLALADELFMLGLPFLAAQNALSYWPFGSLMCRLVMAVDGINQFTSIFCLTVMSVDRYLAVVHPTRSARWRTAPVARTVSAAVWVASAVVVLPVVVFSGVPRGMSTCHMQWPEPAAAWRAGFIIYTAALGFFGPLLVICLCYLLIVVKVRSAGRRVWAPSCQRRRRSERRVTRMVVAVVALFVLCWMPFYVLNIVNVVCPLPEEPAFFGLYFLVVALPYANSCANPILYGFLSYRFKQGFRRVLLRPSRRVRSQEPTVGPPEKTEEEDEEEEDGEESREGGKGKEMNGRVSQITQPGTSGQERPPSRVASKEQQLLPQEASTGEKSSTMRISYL
# TEST_NAME: SSTR3 functional antagonist assay (cAMP, FSK + SS-14, CHO cells)
# RECORDED_CONDITIONS: 3.5 μM FSK + 100 nM SS-14; more active isomer
OBSERVATION_TYPE: EC50 (nM)
Just the number please, in nM, no unit attached.

# annotated cases, reported EC50 shown
[
  {
    "COMPOUND": "CCOCC1(c2nnc(C3(C)CCCO3)o2)N[C@@H](c2nc(-c3ccc(F)c(C)n3)c[nH]2)Cc2c1[nH]c1ccccc21 (stereo partly shown) [Example 11]",
    "EXPERIMENTAL_TARGET": "human SSTR3 (Homo sapiens (Human), UniProt P32745)",
    "UNIT_ABBREVIATION": "nM",
    "EC50": 0.7
  },
  {
    "COMPOUND": "Cc1nnc(C2(C3CCCCO3)N[C@@H](c3nc(-c4ccc(F)c(C)n4)c[nH]3)Cc3c2[nH]c2ccccc32)o1 (stereo partly shown) [Example 21]",
    "EXPERIMENTAL_TARGET": "human SSTR3 (Homo sapiens (Human), UniProt P32745)",
    "UNIT_ABBREVIATION": "nM",
    "EC50": 3.1
  },
  {
    "COMPOUND": "CCOCC1(c2nnc(C(C)C)o2)N[C@@H](c2nc(-c3ccc(F)cn3)c[nH]2)Cc2c1[nH]c1ccccc21 (stereo partly shown) [Example 9]",
    "EXPERIMENTAL_TARGET": "human SSTR3 (Homo sapiens (Human), UniProt P32745)",
    "UNIT_ABBREVIATION": "nM",
    "EC50": 5.1
  },
  {
    "COMPOUND": "COCCOCC1(c2nnc(C3CCOCC3)o2)N[C@@H](c2nc(-c3ccc(F)cn3)c[nH]2)Cc2c1[nH]c1ccccc21 (stereo partly shown) [Example 10]",
    "EXPERIMENTAL_TARGET": "human SSTR3 (Homo sapiens (Human), UniProt P32745)",
    "UNIT_ABBREVIATION": "nM",
    "EC50": 2.4
  },
  {
    "COMPOUND": "CCOCC1(c2nnc(CCOC)o2)N[C@@H](c2nc(-c3ccc(F)c(C)n3)c[nH]2)Cc2c1[nH]c1ccccc21 (stereo partly shown) [Example 7]",
    "EXPERIMENTAL_TARGET": "human SSTR3 (Homo sapiens (Human), UniProt P32745)",
    "UNIT_ABBREVIATION": "nM",
    "EC50": 0.9
  },
  {
    "COMPOUND": "CCOCC1(c2nnc(C(C)C)o2)N[C@@H](c2nc(-c3ccc(F)c(C)n3)c[nH]2)Cc2c1[nH]c1ccccc21 (stereo partly shown) [Example 14]",
    "EXPERIMENTAL_TARGET": "human SSTR3 (Homo sapiens (Human), UniProt P32745)",
    "UNIT_ABBREVIATION": "nM",
    "EC50": 1.3
  }
]

Please find the next compound below.
stdin: Quick one: EC50 for CCOCC1(c2nnc(CCOC)o2)N[C@@H](c2nc(-c3ccc(F)cn3)c[nH]2)Cc2c1[nH]c1ccccc21 (stereo partly shown) [Example 5] ?
stdout: 3.5

###

# EXPERIMENTAL_TARGET: human SSTR3 (Homo sapiens (Human))
# TEST_NAME: SSTR3 functional antagonist assay (cAMP, FSK + SS-14, CHO cells)
# RECORDED_CONDITIONS: 3.5 μM FSK + 100 nM SS-14; more active isomer
In this section we review reported EC50 values for a set of compounds.
Include the unit after the number when you answer.

The cases that follow already have their EC50 on record.
[
  {
    "COMPOUND": "COCCOCC1(c2nnc(C(C)C)o2)N[C@@H](c2nc(-c3ccc(F)c(C)n3)c[nH]2)Cc2c1[nH]c1ccccc21 (stereo partly shown)",
    "EC50": "0.6 nM"
  },
  {
    "COMPOUND": "COC1CC(C2(c3nnc(C)o3)N[C@@H](c3nc(-c4ccc(F)c(C)n4)c[nH]3)Cc3c2[nH]c2ccccc32)C1 (stereo partly shown)",
    "EC50": "1.7 nM"
  },
  {
    "COMPOUND": "[2H]C([2H])([2H])OC1CC2C(C1)C2C1(c2nnc(C)o2)N[C@@H](c2nc(-c3ccc(F)c(C)n3)c[nH]2)Cc2c1[nH]c1ccccc21 (stereo partly shown)",
    "EC50": "1.57 nM"
  }
]

Now for a further compound.
stdin: Entry under review: COC1CCC(C2(c3nnc(C)o3)NC(c3nc(-c4ccc(F)c(C)n4)c[nH]3)Cc3c2[nH]c2ccccc32)CC1 (stereo not shown) . Reported EC50?
stdout: 0.6 nM

###

Parameter 'readout' = pKi; parameter 'system' = human SSTR3 (Homo sapiens (Human), UniProt P32745).
Expect pKi as a plain number equal to -log10 of the molar concentration.

Here is how some compounds turned out for pKi.
[
  {
    "COMPOUND": "CCOCC1(c2nnc(CCOC)o2)N[C@@H](c2nc(-c3ccc(F)c(C)n3)c[nH]2)Cc2c1[nH]c1ccccc21 (stereo partly drawn)",
    "EXPERIMENTAL_TARGET": "human SSTR3 (Homo sapiens (Human), UniProt P32745)",
    "pKi": 9.05
  },
  {
    "COMPOUND": "[2H]C([2H])([2H])COCC1(c2nnc(C)o2)N[C@@H](c2nc(-c3ccc(F)c(C)n3)c[nH]2)Cc2c1[nH]c1ccccc21 (stereo partly drawn)",
    "EXPERIMENTAL_TARGET": "human SSTR3 (Homo sapiens (Human), UniProt P32745)",
    "pKi": 9.22
  }
]

Attention now shifts to the item below.
stdin: So what does the record say about pKi for COC1CC(C2(c3nnc(C)o3)N[C@@H](c3nc(-c4ccc(F)c(C)n4)c[nH]3)Cc3c2[nH]c2ccccc32)C1 (stereo partly drawn) ?
stdout: 8.74

###

Read-out record for hERG potassium ion channel (Homo sapiens (Human)): pIC50
Please express pIC50 as -log10 of the molar concentration.

Observe how each entry below is paired with its result.
[
  {
    "COMPOUND": "[2H]C([2H])([2H])OC1CC2C(C1)C2C1(c2nnc(C)o2)N[C@@H](c2nc(-c3ccc(F)c(C)n3)c[nH]2)Cc2c1[nH]c1ccccc21 (stereo partly shown) [Example 22]",
    "EXPERIMENTAL_TARGET": "hERG potassium ion channel (Homo sapiens (Human))",
    "OBSERVED_MEASUREMENT": 4.64
  },
  {
    "COMPOUND": "COCCOCC1(c2nnc(C(C)(C)C)o2)N[C@@H](c2nc(-c3ccc(F)cn3)c[nH]2)Cc2c1[nH]c1ccccc21 (stereo partly shown) [Example 8]",
    "EXPERIMENTAL_TARGET": "hERG potassium ion channel (Homo sapiens (Human))",
    "OBSERVED_MEASUREMENT": 4.71
  }
]

stdin: Could you tell me which pIC50 is on file for [2H]C([2H])([2H])COCC1(c2nnc(C)o2)N[C@@H](c2nc(-c3ccc(F)c(C)n3)c[nH]2)Cc2c1[nH]c1ccccc21 (stereo partly shown) [Example 16] ?
stdout: 4.65

stdin: Quick one: pIC50 of CCOCC1(c2nnc(C(C)C)o2)N[C@@H](c2nc(-c3ccc(F)cn3)c[nH]2)Cc2c1[nH]c1ccccc21 (stereo partly shown) [Example 9] ?
stdout: 4.69

stdin: Item under review: COC1CC(C2(c3nnc(C)o3)N[C@@H](c3nc(-c4ccc(F)c(C)n4)c[nH]3)Cc3c2[nH]c2ccccc32)C1 (stereo partly shown) [Example 17] . Reported pIC50?
stdout: 4.67

stdin: Please give the measured pIC50 for this compound: Cc1nnc(C2(C3CCCO3)N[C@@H](c3nc(-c4ccc(F)c(C)n4)c[nH]3)Cc3c2[nH]c2ccccc32)o1 (stereo partly shown) [Example 20]
stdout: 4.77

stdin: Which pIC50 value is on record for CCOCC1(c2nnc(C(C)(C)C)o2)N[C@@H](c2nc(-c3ccc(F)cn3)c[nH]2)Cc2c1[nH]c1ccccc21 (stereo partly shown) [Example 6] ?
stdout: 4.75

stdin: Dear colleague, I am looking for the recorded pIC50 of the following compound: COC1CCC(C2(c3nnc(C)o3)NC(c3nc(-c4ccc(F)c(C)n4)c[nH]3)Cc3c2[nH]c2ccccc32)CC1 (stereo not shown) [Example 18]
stdout: 4.76

stdin: Which measured pIC50 value corresponds to CCOCC1(c2nnc(CCOC)o2)N[C@@H](c2nc(-c3ccc(F)cn3)c[nH]2)Cc2c1[nH]c1ccccc21 (stereo partly shown) [Example 5] ?
stdout: 4.78

stdin: # query: pIC50 of entry CCOCC1(c2nnc(CCOC)o2)N[C@@H](c2nc(-c3ccc(F)c(C)n3)c[nH]2)Cc2c1[nH]c1ccccc21 (stereo partly shown) [Example 7]
stdout: 4.63
